Data provenance is patent US20170045513A1.

Test system: gluten-reactive T cells
test_protocol: 96-well plate whole blood cytokine release, IFNγ by MAGPIX multiplex bead assay
Format: cell-based, human
protocol_conditions: Subject 8; after oral gluten challenge; Max. 47 pg/mL
Non-standard residues stand in square brackets, D forms with d. pGlu = O=C1CC[C@@H](C(=O)O)N1
measured_endpoint: Percent of maximal response to individual gluten peptides, IFNg

IN: Determine its reported Percent of maximal response to individual gluten peptides, IFNg: (pE)QPFPQPEQPFSQQ-amide ([pGlu]QPFPQPEQPFSQQ-NH2; SMILES NC(=O)CC[C@H](NC(=O)[C@H](CCC(N)=O)NC(=O)[C@H](CO)NC(=O)[C@H](Cc1ccccc1)NC(=O)[C@@H]1CCCN1C(=O)[C@H](CCC(N)=O)NC(=O)[C@H](CCC(=O)O)NC(=O)[C@@H]1CCCN1C(=O)[C@H](CCC(N)=O)NC(=O)[C@@H]1CCCN1C(=O)[C@H](Cc1ccccc1)NC(=O)[C@@H]1CCCN1C(=O)[C@H](CCC(N)=O)NC(=O)[C@@H]1CCC(=O)N1)C(N)=O) [Peptide 7]
OUT: 0 % of max
